Taken from patent US20210318322A1.

Target: T1, cynomolgus VISTA extracellular domain (cynomolgus, UniProt A0A7N9IB00 33-194)
T1 construct: extracellular domain; also called cyno VISTA ECD; SB0361 (cyno (cynomolgus))
T1 sequence: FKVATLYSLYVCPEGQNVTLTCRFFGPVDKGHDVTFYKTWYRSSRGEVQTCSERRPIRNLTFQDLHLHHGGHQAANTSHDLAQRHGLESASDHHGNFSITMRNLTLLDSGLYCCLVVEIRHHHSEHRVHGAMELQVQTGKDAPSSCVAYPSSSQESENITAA
Experiment: SPR ProteOn
observable: kon (M⁻¹ s⁻¹)
# number only, unit M⁻¹ s⁻¹ dropped from output

| binder | valueUnits | kon |
| --- | --- | --- |
| VSTB50 (antibody, human IgG1, kappa, V domains shown, also called S41; INX Code 41) VH: QVQLVQSGSELKKPGASVKVSCKASGYTFTNYGLNWVRQAPGQGLEWMGWINPYTGEPTYADDFKGRFVFSLDTSVSTAYLQICSLKAEDTAVYYCAREGYGNYIFPYWGQGTLVTVSS VL: DIVMTQTPLSLSVTPGQPASISCRASESVDTYANSLMHWYLQKPGQPPQLLIYRASNLESGVPDRFSGSGSGTDFTLKISRVEAEDVGVYYCQQTNEDPRTFGQGTKLEIKR | M⁻¹ s⁻¹ | 708000 |
| VSTB53 (antibody, human IgG1, kappa, V domains shown, also called S43; INX Code 43) VH: QVQLVQSGAEVKKPGASVKVSCKASGYTFTHYTIHWVRQAPGQGLEWMGYIIPSSGYSEYNQKFKDRVTMTRDTSTSTVYMELSSLRSEDTAVYYCARGAYDDYYDYYAMDYWGQGTLVTVSS VL: DIVMTQSPLSLPVTPGEPASISCRSSQTIVHSNGNTYLEWYLQKPGQSPQLLIYKVSNRFSGVPDRFSGSGSGTDFTLKISRVEAEDVGVYYCFQASHVPWTFGQGTKLEIKR | M⁻¹ s⁻¹ | 1.18e+06 |

Problem: Which kon value is on record for VSTB95 (antibody, human IgG1, kappa, V domains shown, also called S16; INX Code 16) VH: EVQLVESGGGLVQPGGSLRLSCAASGFTFRNYGMSWVRQAPGKGLEWVASIISGGSYTYYPDSVKGRFTISRDNAKNSLYLQMNSLRAEDTAVYYCARIYDHDGDYYAMDYWGQGTTVTVSS VL: DIVMTQSPLSLPVTPGEPASISCRSSQSIVHSNGNTYLEWYLQKPGQSPQLLIYKVSNRFSGVPDRFSGSGSGTDFTLKISRVEAEDVGVYYCFQGSHVPWTFGQGTKLEIKR ?
Result: 443000

Problem: # get_value(readout='kon', item= VSTB60 (antibody, human IgG1, kappa, V domains shown, also called S47; INX Code 47) VH: QVQLVQSGSELKKPGASVKVSCKASGYTFTNYGMTWVRQAPGQGLEWMGWINTYTGESTYADDFKGRFVFSLDTSVSTAYLQICSLKAEDTAVYYCARDYYGIYVSAYWGQGTLVTVSS VL: DIVMTQTPLSLSVTPGQPASISCRASESVDNYANSFMHWYLQKPGQSPQLLIYRASNLESGVPDRFSGSGSGTDFTLKISRVEAEDVGVYYCQQSHEDPYTFGQGTKLEIKR )
Result: 569000
